These entries and their values trace back to patent US20100041597A1.

Examples of substances with documented viability at 48 h, 10000 µg/mL follow.
- procedure-text: In vitro toxicity test (fluorimetric DNA assay, Hoechst)
- Type: cell-based, human
- condition-label: human, IMR-32 neuroblastoma cells; 10 mg/ml; 48 h; with pinocytic endocytosis reagent; read-out: % survival
- Description: In vitro cytotoxicity testing of the peptides PRE 3, PRE 4 and PRE 5 (see Table 3) was conducted following the general protocol outlined below (modified from “Fluorimetric DNA assay for cell growth estimation” Rao J, Otto W., Analytical Biochem. 207:186-192, 1992). […] The results are shown in Tables 11-13 as the average relative fluorescence intensity measured for the 8 replica wells, as well as the percentage of survival as compared with matching untreated controls.

substance	viability at 48 h, 10000 µg/mL / %
Ac-KDAQNLIGISI-NH2 [PRE 4, Ac-KDAQNLIGISI-NH2]	101
Ac-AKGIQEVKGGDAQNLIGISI-NH2 [PRE 3]	129
